- Tested on: PC3 prostate cancer cell
- RUN DESCRIPTION: MTT cell viability assay, PC3 prostate cancer cell
- Type: cell-based
- TEST CONTEXT: PC-3, treated 24 hours; read-out: IC50 24 hours
pIC50: −log10 of the molar value.

COMPOUND: CC(CO)(CO)C(=O)Oc1ccc(/C=C/C(=O)/C=C(O)/C=C/c2ccc(O)cc2)cc1 [Compound 23b]
EXPERIMENTAL TARGET: PC3 prostate cancer cell
pIC50: 4.70

COMPOUND: CC(CO)(CO)C(=O)Oc1ccc(/C=C/C(=O)C(C)(C)C(=O)/C=C/c2ccc(OC(=O)C(C)(CO)CO)cc2)cc1
EXPERIMENTAL TARGET: PC3 prostate cancer cell
pIC50: 4.77

COMPOUND: CC(CO)(CO)C(=O)Oc1ccc(/C=C/C(=O)CC(=O)/C=C/c2ccc(OC(=O)C(C)(CO)CO)c(OC(F)(F)F)c2)cc1OC(F)(F)F
EXPERIMENTAL TARGET: PC3 prostate cancer cell
pIC50: 4.17

COMPOUND: C#CCC(CC#C)(C(=O)/C=C/c1ccc(OC(=O)C(C)(CO)CO)c(OC)c1)C(=O)/C=C/c1ccc(OC(=O)C(C)(CO)CO)c(OC)c1 [Compound 35d]
EXPERIMENTAL TARGET: PC3 prostate cancer cell
pIC50: 4.77

COMPOUND: COc1ccc(/C=C/C(=O)C(COC(C)=O)(COC(C)=O)C(=O)/C=C/c2ccc(OC)c(OC)c2)cc1OC
EXPERIMENTAL TARGET: PC3 prostate cancer cell
pIC50: 5.43

COMPOUND: COc1cc(/C=C/C(=O)/C=C(O)/C=C/c2ccc(O)c(OC)c2)ccc1O
EXPERIMENTAL TARGET: PC3 prostate cancer cell
pIC50: 4.24

COMPOUND: COc1ccc(/C=C/C(O)=C/C(=O)/C=C/c2ccc(OC(=O)C(C)(CO)CO)c(OC)c2)cc1OC
EXPERIMENTAL TARGET: PC3 prostate cancer cell
pIC50: 5.11

COMPOUND: COc1cc(/C=C/C(O)=C/C(=O)/C=C/c2ccc(OC(=O)C(C)(CO)CO)c(OC)c2)ccc1O [Compound 21b]
EXPERIMENTAL TARGET: PC3 prostate cancer cell
pIC50: 4.61

COMPOUND: COc1ccc(/C=C/C(=O)CC(=O)/C=C/c2ccc(OC)c(OC(=O)C(C)(CO)CO)c2)cc1O [Compound 24b]
EXPERIMENTAL TARGET: PC3 prostate cancer cell
pIC50: 5.08

COMPOUND: COc1cc(/C=C/C(=O)/C=C(O)/C=C/c2ccc(OC(=O)C(C)(CO)CO)c(OC)c2)ccc1OC(=O)C(C)(CO)CO [Compound 21a]
EXPERIMENTAL TARGET: PC3 prostate cancer cell
pIC50: 5.11

COMPOUND: COc1ccc(/C=C/C(=O)C(COC(=O)C(C)(CO)CO)(COC(=O)C(C)(CO)CO)C(=O)/C=C/c2ccc(OC)c(OC)c2)cc1OC
EXPERIMENTAL TARGET: PC3 prostate cancer cell
pIC50: 4.17

COMPOUND: COc1ccc(/C=C/C(=O)CC(=O)/C=C/c2ccc(OC)c(OC(=O)C(C)(CO)CO)c2)cc1OC(=O)C(C)(CO)CO [Compound 24a]
EXPERIMENTAL TARGET: PC3 prostate cancer cell
pIC50: 4.92

COMPOUND: COc1ccc(/C=C/C(=O)C(C)(C)C(=O)/C=C/c2ccc(OC)c(OC(=O)C(C)(CO)CO)c2)cc1OC(=O)C(C)(CO)CO
EXPERIMENTAL TARGET: PC3 prostate cancer cell
pIC50: 5.54

COMPOUND: COc1ccc(/C=C/C(=O)C(CO)(CO)C(=O)/C=C/c2ccc(OC)c(OC)c2)cc1OC
EXPERIMENTAL TARGET: PC3 prostate cancer cell
pIC50: 4.11

Source: patent US10787413B2
